TARGET: HEKn (EGFR WT) (Homo sapiens, UniProt P00533)
METHOD: EGFR target modulation in HEKn (EGFR-WT) cell line (phospho-EGFR Y1173 ELISA)
PROTOCOL_CONDITIONS: value outside parentheses
Would you kindly list log10(IC50) for each of these compounds?
Parameter value (number): base-10 log of IC50 in nM.

// each listed compound needs a value for log10(IC50)
1. C=CC(=O)N1CCCC[C@@H](n2c(NC(=O)c3ccccc3)nc3cccc(CN4CCC(O)C4)c32)C1 (stereo partly shown) [Example 17-114]
2. C/C=C/C(=O)N1CCCC[C@@H](n2c(NC(=O)c3ccnc(C)c3)nc3cc(CN4CCCC4)cc(C)c32)C1 [Example 17-164]
3. CO[C@@H]1CCN(C/C=C/C(=O)N2CCCC[C@@H](n3c(NC(=O)c4ccnc(C)c4)nc4cccc(Cl)c43)C2)C1 [Example 3-4]
4. C=CC(=O)N1CCCC[C@@H](n2c(NC(=O)c3cnnc(C)c3)nc3cccc(C)c32)C1 [Example 17-81]
5. C=CC(=O)N1CCCC[C@@H](n2c(NC(=O)c3ccccc3)nc3cccc(CN4CCS(=O)(=O)CC4)c32)C1 [Example 17-132]

[2.00, 3.36, 2.51, 2.21, 3.45]

// query log10(IC50) value for entry C=CC(=O)N1CCCCC(n2c(NC(=O)c3cccc(C(F)(F)F)c3)nc3cc(C)ccc32)C1 (stereo not shown) [Example 17-1]
2.86

====

TARGET: EGFR(L858R/T790M) (Homo sapiens, UniProt P00533, L858R/T790M)
Construct: purchased from Carna (GST-a.a. 669-1210)
Sequence (P00533 669-1210 T790M/L858R): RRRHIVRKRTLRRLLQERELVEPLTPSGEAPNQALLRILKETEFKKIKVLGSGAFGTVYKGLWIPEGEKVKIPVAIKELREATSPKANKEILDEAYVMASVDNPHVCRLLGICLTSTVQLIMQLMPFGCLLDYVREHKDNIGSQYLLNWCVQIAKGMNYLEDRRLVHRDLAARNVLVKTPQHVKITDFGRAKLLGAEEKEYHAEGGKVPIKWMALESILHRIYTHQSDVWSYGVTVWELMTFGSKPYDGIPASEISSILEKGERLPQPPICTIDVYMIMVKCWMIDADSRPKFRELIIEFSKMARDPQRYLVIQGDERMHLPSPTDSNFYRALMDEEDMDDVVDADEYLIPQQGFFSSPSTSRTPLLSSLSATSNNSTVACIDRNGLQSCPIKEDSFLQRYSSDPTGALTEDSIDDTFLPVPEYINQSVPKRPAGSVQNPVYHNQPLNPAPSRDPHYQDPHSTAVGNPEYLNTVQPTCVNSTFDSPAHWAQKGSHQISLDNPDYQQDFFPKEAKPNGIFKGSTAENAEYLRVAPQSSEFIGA
METHOD: EGFR biochemical assay (HTRF), IC50 determinations
PROTOCOL_CONDITIONS: EGFR (L858R/T790M) with no pre-incubation; read-out: IC50 (μM) Column A
PROPERTY_LABEL: IC50 (µM)
Answers are plain numbers, in µM.

Known IC50 results, listed for orientation:
COMPOUND | PROPERTY_LABEL | TEST_RESULT
Cc1cc(C(=O)Nc2nc3cccc(Cl)c3n2C2CCCCN(C(=O)/C=C/CN(C)C)C2)cc(P(C)(C)=O)n1 (single isomer, unassigned) [Example 21-9B] | IC50 | 0.894
Cc1cc(C(=O)Nc2nc3cccc(C)c3n2[C@@H]2CCCCN(C(=O)/C=C/CN3CC[C@@H](F)C3)C2)ccn1 | IC50 | 0.006
C=CC(=O)N1CCCC(n2c(NC(=O)c3cccc(C(F)(F)F)c3)nc3cnccc32)C1 (stereo not shown) | IC50 | 7

Shifting focus to the compound that follows.
State the recorded IC50 for this entry: C=CC(=O)N1CCNCC(n2c(NC(=O)c3ccnc(C)c3)nc3cccc(Cl)c32)C1 (stereo not shown)
1.63

====

Task for the reader: assign each of the following compounds its reported IC50.
TARGET: human EGFR WT (NIH/3T3 cells, EGF-induced) (Homo sapiens, UniProt P00533)
Sequence (P00533 25-1210): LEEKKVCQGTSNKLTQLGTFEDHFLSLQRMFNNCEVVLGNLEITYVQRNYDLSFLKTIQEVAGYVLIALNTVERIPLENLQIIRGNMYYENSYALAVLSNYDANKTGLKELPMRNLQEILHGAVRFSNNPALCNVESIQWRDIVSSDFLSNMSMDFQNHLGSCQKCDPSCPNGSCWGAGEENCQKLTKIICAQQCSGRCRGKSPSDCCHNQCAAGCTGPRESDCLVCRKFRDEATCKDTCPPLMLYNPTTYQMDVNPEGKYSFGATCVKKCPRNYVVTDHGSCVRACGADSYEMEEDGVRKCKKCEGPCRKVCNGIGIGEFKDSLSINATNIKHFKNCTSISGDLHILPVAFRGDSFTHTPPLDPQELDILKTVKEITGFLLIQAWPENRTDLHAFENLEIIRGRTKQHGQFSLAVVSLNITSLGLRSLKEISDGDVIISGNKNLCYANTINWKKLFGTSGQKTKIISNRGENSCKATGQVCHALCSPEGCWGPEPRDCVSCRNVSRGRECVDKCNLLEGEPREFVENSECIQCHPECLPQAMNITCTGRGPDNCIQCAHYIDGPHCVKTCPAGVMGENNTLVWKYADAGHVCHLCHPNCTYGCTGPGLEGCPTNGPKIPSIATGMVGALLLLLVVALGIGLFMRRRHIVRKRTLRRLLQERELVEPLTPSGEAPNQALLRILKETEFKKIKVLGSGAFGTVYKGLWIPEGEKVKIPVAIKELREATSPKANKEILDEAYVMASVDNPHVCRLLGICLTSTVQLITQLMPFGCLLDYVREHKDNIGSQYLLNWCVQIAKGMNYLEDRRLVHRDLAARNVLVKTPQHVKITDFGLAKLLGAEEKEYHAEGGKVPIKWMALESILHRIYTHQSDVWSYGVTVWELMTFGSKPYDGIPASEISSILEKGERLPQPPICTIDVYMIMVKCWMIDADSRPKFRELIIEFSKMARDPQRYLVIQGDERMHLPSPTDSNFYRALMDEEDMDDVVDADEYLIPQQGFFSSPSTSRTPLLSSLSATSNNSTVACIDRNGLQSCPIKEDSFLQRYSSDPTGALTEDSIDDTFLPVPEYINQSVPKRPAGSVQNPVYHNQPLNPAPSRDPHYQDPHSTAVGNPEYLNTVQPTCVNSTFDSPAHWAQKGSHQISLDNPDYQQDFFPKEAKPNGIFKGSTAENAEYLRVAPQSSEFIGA
METHOD: EGFR target modulation in engineered NIH/3T3 cell lines (phospho-EGFR Y1068 AlphaLISA), EGFR WT
Type: cell-based
PROTOCOL_CONDITIONS: engineered NIH/3T3 cells, read-out: NIH3T3 IC50 (μM) EGFR (WT)
Answers are plain numbers, in µM.

Sample answers from the record:
COMPOUND | IC50, µM
C=CC(=O)N1CCCC[C@@H](n2c(NC(=O)c3ccnnc3)nc3ccc(OC)c(Cl)c32)C1 | 0.101
CO[C@@H]1CCN(C/C=C/C(=O)N2CCCC[C@@H](n3c(NC(=O)c4ccnc(C)c4)nc4cccc(Cl)c43)C2)C1 | 0.058
C=CC(=O)N1CCCCC(n2c(NC(=O)c3ccccc3)nc3cccc(C(=O)N4C[C@@H](O)[C@H](O)C4)c32)C1 (some centres unmarked) | 7.9
Cc1cc(C(=O)Nc2nc3cccc(Cl)c3n2[C@@H]2CCCCN(C(=O)/C=C/CN3CC(F)(F)C3)C2)ccn1 | 7.3
Cc1cccc2nc(NC(=O)c3ccc(F)c(Cl)c3F)n(C3CCCCN(C(=O)/C=C/CN(C)C)C3)c12 (centres unmarked) | 0.206
Cc1cccc2nc(NC(=O)c3cccc(Cl)c3)n(C3CCCCN(C(=O)/C=C/CN(C)C)C3)c12 (centres unmarked) | 0.48
COc1cccc2nc(NC(=O)c3ccnnc3)n([C@@H]3CCCCN(C(=O)/C=C/CN(C)C)C3)c12 | 0.6
Cc1cccc2nc(NC(=O)c3cc(Cl)nc(OC(F)(F)F)c3)n([C@@H]3CCCCN(C(=O)/C=C/CN(C)C)C3)c12 | 0.61
C=CC(=O)N1CCCC[C@@H](n2c(NC(=O)c3ccnc(C)c3)nc3cc(CN4CCCCC4)cc(C)c32)C1 | 0.029
Cc1cccc2nc(NC(=O)c3ccnnc3)n([C@@H]3CCCCN(C(=O)C4=COCCO4)C3)c12 | 0.7

# ---- query compound ----
Lab request: please report IC50 under test system human EGFR WT (NIH/3T3 cells, EGF-induced) (Homo sapiens, UniProt P00533) for Cc1cccc2nc(NC(=O)c3ccnc(N4CCCCC4)c3)n(C3CCCCN(C(=O)/C=C/CN(C)C)C3)c12 (centres unmarked)
0.02

====

TARGET: H3255 (EGFR L858R) (Homo sapiens, UniProt P00533, L858R)
Sequence (P00533 25-1210 L858R): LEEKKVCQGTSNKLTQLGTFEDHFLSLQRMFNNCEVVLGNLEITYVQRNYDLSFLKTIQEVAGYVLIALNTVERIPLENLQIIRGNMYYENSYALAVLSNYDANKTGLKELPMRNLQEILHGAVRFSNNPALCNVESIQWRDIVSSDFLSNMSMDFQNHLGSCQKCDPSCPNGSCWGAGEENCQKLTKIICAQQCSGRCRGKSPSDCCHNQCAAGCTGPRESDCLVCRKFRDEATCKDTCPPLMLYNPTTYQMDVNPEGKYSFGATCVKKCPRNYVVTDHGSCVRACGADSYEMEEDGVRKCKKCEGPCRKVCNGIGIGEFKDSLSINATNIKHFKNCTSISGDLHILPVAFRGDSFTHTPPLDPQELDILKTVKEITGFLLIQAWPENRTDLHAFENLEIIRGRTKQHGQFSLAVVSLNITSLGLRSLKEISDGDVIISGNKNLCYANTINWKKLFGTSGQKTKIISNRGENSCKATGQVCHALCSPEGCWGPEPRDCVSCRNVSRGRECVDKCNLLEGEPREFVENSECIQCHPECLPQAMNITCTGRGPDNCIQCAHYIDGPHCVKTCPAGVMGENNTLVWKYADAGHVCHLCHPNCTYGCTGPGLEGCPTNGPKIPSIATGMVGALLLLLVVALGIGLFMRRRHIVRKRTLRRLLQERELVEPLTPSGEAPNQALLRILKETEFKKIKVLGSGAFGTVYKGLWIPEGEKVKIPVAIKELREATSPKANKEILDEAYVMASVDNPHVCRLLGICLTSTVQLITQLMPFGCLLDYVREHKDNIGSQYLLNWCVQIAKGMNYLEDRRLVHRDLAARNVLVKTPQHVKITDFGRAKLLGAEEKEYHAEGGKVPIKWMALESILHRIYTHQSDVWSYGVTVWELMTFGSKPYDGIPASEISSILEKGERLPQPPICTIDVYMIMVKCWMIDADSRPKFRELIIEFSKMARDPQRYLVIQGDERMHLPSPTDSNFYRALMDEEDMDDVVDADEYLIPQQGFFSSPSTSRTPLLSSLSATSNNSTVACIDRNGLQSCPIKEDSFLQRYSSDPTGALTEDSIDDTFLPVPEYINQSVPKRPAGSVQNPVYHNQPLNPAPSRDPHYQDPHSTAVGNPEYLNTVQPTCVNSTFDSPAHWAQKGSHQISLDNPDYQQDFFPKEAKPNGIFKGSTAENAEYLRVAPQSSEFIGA
METHOD: EGFR target modulation in H3255 cell line (phospho-EGFR Y1173 ELISA)
Assay type: cell-based
Method: EGFR Target Modulation in H1975, H3255 and HCC827 Cell Lines Tissue Culture. Cells were maintained in 10% FBS/RPMI supplemented with 100 μg/ml Penicillin/Streptomycin (Hyclone #SH30236.01). […] The cells were allowed to incubate overnight in a 37° C., 5% CO2 humidified tissue culture incubator. […] Signal was read on EnVision plate reader using built-in UltraLUM setting. […] With these parameters, the IC50's for each compound in each cell line was calculated using non-linear curve fitting analysis.
PROPERTY_LABEL: log10 of IC50 (log10 of the value in nM)
Quick note: numbers are log10 of IC50, with nM as the unit.

COMPOUND | PROPERTY_LABEL | TEST_RESULT
C=CC(=O)N1CCCC[C@@H](n2c(NC(=O)c3cc(C)nc(C)c3)nc3cc(CN4CC[C@H](OC)C4)ccc32)C1 [Example 17-175] | log10 of IC50 | 0.60
Cc1cc(C(=O)Nc2nc3cccc(Cl)c3n2C2CCCCN(C(=O)/C=C/CN(C)C)C2)cc(P(C)(C)=O)n1 (single isomer, unassigned) [Example 21-9A] | log10 of IC50 | 3.82
C=CC(=O)N1CCCC[C@@H](n2c(NC(=O)c3ccnc(C)c3)nc3cccc(Cl)c32)C1 [Example 17-17] | log10 of IC50 | 0.90
C/C=C/C(=O)N1CCCC[C@@H](n2c(NC(=O)c3cc(C)nc(C)c3)nc3ccc(OCCN4CCCC4)c(Cl)c32)C1 [Example 17-195] | log10 of IC50 | 2.26
Cc1cc(C(=O)Nc2nc3cccc(Cl)c3n2[C@@H]2CCCCN(C(=O)/C=C/CNC3(C)CC3)C2)ccn1 [Example 17-192] | log10 of IC50 | 0.30

// switching to the query compound
Need log10 of IC50, item C=CC(=O)N1CCCC[C@@H](n2c(NC(=O)c3cc(C)nc(C)c3)nc3cc(CN4CCN(C)C(=O)C4)cc(C)c32)C1 [Example 17-180]
0.00

====

TARGET: H1975 (EGFR L858/T790M) (Homo sapiens, UniProt P00533, L858R/T790M)
Sequence (P00533 25-1210 T790M/L858R): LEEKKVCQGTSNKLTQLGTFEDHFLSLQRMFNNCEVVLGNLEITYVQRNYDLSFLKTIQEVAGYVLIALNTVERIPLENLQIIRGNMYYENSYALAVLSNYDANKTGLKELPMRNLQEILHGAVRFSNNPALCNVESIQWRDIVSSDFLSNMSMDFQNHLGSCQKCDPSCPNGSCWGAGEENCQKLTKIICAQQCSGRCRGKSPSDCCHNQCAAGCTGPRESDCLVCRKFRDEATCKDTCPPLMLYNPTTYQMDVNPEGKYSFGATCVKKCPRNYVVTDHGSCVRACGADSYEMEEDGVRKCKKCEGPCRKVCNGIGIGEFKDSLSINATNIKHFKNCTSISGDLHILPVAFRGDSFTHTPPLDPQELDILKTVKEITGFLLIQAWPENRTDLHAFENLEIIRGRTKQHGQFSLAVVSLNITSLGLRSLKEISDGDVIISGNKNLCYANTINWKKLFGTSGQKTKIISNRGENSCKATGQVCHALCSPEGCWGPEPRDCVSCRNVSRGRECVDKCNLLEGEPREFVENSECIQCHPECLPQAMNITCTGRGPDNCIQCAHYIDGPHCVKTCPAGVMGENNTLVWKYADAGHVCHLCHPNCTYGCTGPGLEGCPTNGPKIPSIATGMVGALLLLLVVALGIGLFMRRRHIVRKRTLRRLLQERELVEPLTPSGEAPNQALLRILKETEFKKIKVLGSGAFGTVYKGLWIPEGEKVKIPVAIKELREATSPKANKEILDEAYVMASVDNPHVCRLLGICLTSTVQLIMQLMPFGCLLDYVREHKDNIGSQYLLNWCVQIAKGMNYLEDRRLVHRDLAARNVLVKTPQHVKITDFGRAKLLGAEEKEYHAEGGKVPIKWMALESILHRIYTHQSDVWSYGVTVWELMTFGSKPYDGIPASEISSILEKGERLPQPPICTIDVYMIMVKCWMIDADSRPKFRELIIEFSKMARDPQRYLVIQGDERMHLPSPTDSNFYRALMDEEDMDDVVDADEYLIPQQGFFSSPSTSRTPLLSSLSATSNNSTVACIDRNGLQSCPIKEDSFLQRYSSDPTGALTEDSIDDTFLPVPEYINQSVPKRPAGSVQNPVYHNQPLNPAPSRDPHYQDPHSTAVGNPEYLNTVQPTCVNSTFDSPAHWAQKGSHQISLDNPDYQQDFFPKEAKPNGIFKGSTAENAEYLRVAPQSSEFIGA
METHOD: EGFR target modulation in H1975 cell line (phospho-EGFR Y1173 ELISA)
pIC50: −log10 of the molar value.
Criterion: pIC50 meeting or surpassing 8. Met: satisfied. Not met: not satisfied.

COMPOUND | ASSIGNED_CLASS
Cc1cc(C(=O)Nc2nc3cccc(Cl)c3n2[C@@H]2CCCCN(C(=O)/C=C/CN3CC(F)(F)C3)C2)ccn1 [Example 3-15] | not satisfied
C=CC(=O)N1CCCC[C@@H](n2c(NC(=O)c3ccnc(C)c3)nc3cc(CN4CCS(=O)(=O)CC4)cc(C)c32)C1 [Example 17-155] | satisfied
C=CC(=O)N1CCCC[C@@H](n2c(NC(=O)c3ccccc3)nc3cccc(CN4CCC(O)C4)c32)C1 (stereo partly drawn) [Example 17-114] | satisfied

Assess whether reported pIC50 for Cc1cccc2nc(NC(=O)c3cc(F)ccc3F)n(C3CCCCN(C(=O)/C=C/CN(C)C)C3)c12 (stereo not drawn) [Example 17-29] sits at 8 or higher.
not satisfied

One more compound: C=CC(=O)N1CCCC[C@@H](n2c(NC(=O)c3ccnc(C)c3)nc3cccc(Cl)c32)C1 [Example 17-17]
satisfied

Consider next the compound C=CC(=O)N1CCCC[C@@H](n2c(NC(=O)c3ccnnc3)nc3ccc(OC)c(Cl)c32)C1 [Example 9] in the same way.
satisfied
